- Tested on: U2OS
- Assay: cell viability relative to DMSO; higher = less toxic
- Conditions: 72 h; 10 nM
Parameter cell viability: see the listing below.
Number in %, nothing else.

Some solved entries appear below for comparison.
# Compound, Result Units, cell viability
measured = [
    ("CC(C)N1CCN(c2ccc(C(=O)c3c(-c4ccc(O)cc4)sc4cc(O)ccc34)cc2)CC1 [Y-134]", "%", 98.5),
    ("CN(C)C/C=C/C(=O)Nc1ccc(C(=O)Nc2cccc(Nc3ncc(Cl)c(-c4c[nH]c5ccccc45)n3)c2)cc1 [THZ1]", "%", 102),
    ("O=C(NC(Cc1cc(=O)[nH]c2ccccc12)C(=O)O)c1ccc(Cl)cc1 (configuration not stated) [rebamipide]", "%", 96.7),
    ("CC(=O)NS(=O)(=O)c1ccc(NC(=O)c2ccccc2C(=O)O)cc1 [phthalylsulfacetamide]", "%", 94.6),
]

Supply cell viability value. Item: N#CC(=C(/N)Sc1ccccc1N)/C(C#N)=C(/N)Sc1ccccc1N [U-0126]
104

Provide measured cell viability value, entry: CSc1ccc2c(c1)[C@H](N1CCN(C)CC1)Cc1ccccc1S2 (racemic) [metitepine]
97.6

Hello, please tell me recorded cell viability for this one: COc1cccc2c1C(=O)c1c(O)c3c(c(O)c1C2=O)C[C@@](O)(C(C)=O)C[C@@H]3O[C@H]1C[C@H](N)[C@H](O)[C@H](C)O1 [daunorubicin]
103

Please look at this compound and report its cell viability: Cc1csc(NC(=O)CSc2ccc(-c3ccccc3)nn2)n1
97.3

Indicate its recorded cell viability; the compound in question is N[C@@H]1c2cccnc2[C@H](OC(=O)N2CCC(n3c(=O)[nH]c4ncccc43)CC2)CC[C@H]1c1cccc(F)c1F [rimegepant]
96.1

Give the reported value of cell viability for this record: c1cc(-c2cnn3cc(-c4ccc(N5CCNCC5)cc4)cnc23)c2cccnc2c1
93.2
